Measured values drawn from ChEMBL document CHEMBL5223162 for this set.

# target-under-test: Mitogen-activated protein kinase kinase kinase kinase 1 (Homo sapiens, UniProt Q92918)
# Sequence (Q92918 whole entry): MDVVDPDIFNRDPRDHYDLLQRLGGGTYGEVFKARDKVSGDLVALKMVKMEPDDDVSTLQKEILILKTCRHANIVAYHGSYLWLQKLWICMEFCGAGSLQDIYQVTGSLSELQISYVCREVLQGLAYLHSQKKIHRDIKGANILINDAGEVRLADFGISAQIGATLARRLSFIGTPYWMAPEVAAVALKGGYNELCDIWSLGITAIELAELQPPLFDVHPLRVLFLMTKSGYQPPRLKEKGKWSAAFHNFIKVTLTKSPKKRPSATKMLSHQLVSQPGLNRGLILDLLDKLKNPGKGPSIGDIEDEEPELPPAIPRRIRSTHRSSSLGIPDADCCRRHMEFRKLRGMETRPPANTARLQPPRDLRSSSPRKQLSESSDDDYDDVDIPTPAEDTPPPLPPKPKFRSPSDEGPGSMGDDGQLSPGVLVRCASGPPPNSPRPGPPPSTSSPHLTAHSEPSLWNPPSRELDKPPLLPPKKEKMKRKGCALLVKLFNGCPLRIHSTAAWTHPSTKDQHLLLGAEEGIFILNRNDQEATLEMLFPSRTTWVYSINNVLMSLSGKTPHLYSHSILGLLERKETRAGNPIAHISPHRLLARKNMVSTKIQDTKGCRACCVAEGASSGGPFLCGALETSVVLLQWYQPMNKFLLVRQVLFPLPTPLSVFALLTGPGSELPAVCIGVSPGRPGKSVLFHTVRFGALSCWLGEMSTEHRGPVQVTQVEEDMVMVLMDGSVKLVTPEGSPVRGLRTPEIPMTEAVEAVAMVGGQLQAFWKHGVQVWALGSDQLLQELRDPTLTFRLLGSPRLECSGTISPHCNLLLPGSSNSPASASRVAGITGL
# method-summary: Inhibition of human HPK1 in human Jurkat cells assessed as reduction in SLP76 phosphorylation incubated for 1 hr by HTRF assay
# Type: cell-based

compound | target-under-test | IC50, nM
Cc1cc(CN2CCC2)cc(F)c1-c1cc2c(-c3cnn(C)c3)n[nH]c2cn1 | Mitogen-activated protein kinase kinase kinase kinase 1 (Homo sapiens, UniProt Q92918) | 146
CNCc1cc(F)c(-c2cc3c(-c4cnn(C)c4)n[nH]c3cn2)c(F)c1 | Mitogen-activated protein kinase kinase kinase kinase 1 (Homo sapiens, UniProt Q92918) | 117
CCNCc1cc(C)c(-c2cc3c(-c4cnn(C)c4)n[nH]c3cn2)c(F)c1 | Mitogen-activated protein kinase kinase kinase kinase 1 (Homo sapiens, UniProt Q92918) | 137
CN1CCN(c2ccc(-c3n[nH]c4ccc(-c5ccccc5F)nc34)cc2)CC1 | Mitogen-activated protein kinase kinase kinase kinase 1 (Homo sapiens, UniProt Q92918) | 2740
CNCc1cc(F)c(-c2cc3c(-c4cnn(C)c4)n[nH]c3cn2)c(OC)c1 | Mitogen-activated protein kinase kinase kinase kinase 1 (Homo sapiens, UniProt Q92918) | 219
COc1cccc(F)c1-c1cc2c(-c3cnn(C)c3)n[nH]c2cn1 | Mitogen-activated protein kinase kinase kinase kinase 1 (Homo sapiens, UniProt Q92918) | 148
CNCc1cc(C)c(-c2cc3c(-c4cnn(C)c4)n[nH]c3cn2)c(F)c1 | Mitogen-activated protein kinase kinase kinase kinase 1 (Homo sapiens, UniProt Q92918) | 91
Cc1cc(C2CCCCN2)cc(F)c1-c1cc2c(-c3cnn(C)c3)n[nH]c2cn1 (centres undefined) | Mitogen-activated protein kinase kinase kinase kinase 1 (Homo sapiens, UniProt Q92918) | 138
COc1cccc(F)c1-c1ccc2[nH]nc(-c3ccc(N4CCN(C)CC4)cc3)c2n1 | Mitogen-activated protein kinase kinase kinase kinase 1 (Homo sapiens, UniProt Q92918) | 395
COc1cccc(F)c1-c1ncc2[nH]nc(-c3cnn(C)c3)c2n1 | Mitogen-activated protein kinase kinase kinase kinase 1 (Homo sapiens, UniProt Q92918) | 640
CNC(C)c1cc(C)c(-c2cc3c(-c4cnn(C)c4)n[nH]c3cn2)c(F)c1 (centres undefined) | Mitogen-activated protein kinase kinase kinase kinase 1 (Homo sapiens, UniProt Q92918) | 94
CNCc1cc(F)c(-c2cc3c(-c4cnn(C)c4)n[nH]c3cn2)c(C(F)(F)F)c1 | Mitogen-activated protein kinase kinase kinase kinase 1 (Homo sapiens, UniProt Q92918) | 128
COc1cccc(F)c1-c1cc2c(-c3ccc(N4CCN(C)CC4)cc3)n[nH]c2cn1 | Mitogen-activated protein kinase kinase kinase kinase 1 (Homo sapiens, UniProt Q92918) | 144
COc1cccc(F)c1-c1ncc2[nH]nc(-c3ccc(N4CCN(C)CC4)cc3)c2n1 | Mitogen-activated protein kinase kinase kinase kinase 1 (Homo sapiens, UniProt Q92918) | 258

###

Listing of entries alongside the reported AUC at 24 h.
# method-summary: AUC in cynomolgus monkey at 3 mg/kg, po and measured upto 24 hrs by LC-MS/MS analysis
# Type: ADME, organism-based, Macaca fascicularis
# Design: dose 3 mg/kg, time < 24 hrs, route po
# measurement-conditions: in vivo
observed-property: AUC at 24 h (µM·h)

compound | measured-result
CCNCc1cc(C)c(-c2cc3c(-c4cnn(C)c4)n[nH]c3cn2)c(F)c1 | 1.64
Cc1cc(C2CCCCN2)cc(F)c1-c1cc2c(-c3cnn(C)c3)n[nH]c2cn1 (stereo not given) | 7.84
Cc1cc(CN2CCC2)cc(F)c1-c1cc2c(-c3cnn(C)c3)n[nH]c2cn1 | 9.77
CNCc1cc(C)c(-c2cc3c(-c4cnn(C)c4)n[nH]c3cn2)c(F)c1 | 0.759
CNC(C)c1cc(C)c(-c2cc3c(-c4cnn(C)c4)n[nH]c3cn2)c(F)c1 (stereo not given) | 3.93
